Test system: RARb homodimer (NR concentration 270 nM)
Test: PBM binding z-score (relative to random genomic background probes); higher = stronger binding; sequences stand for … in GC…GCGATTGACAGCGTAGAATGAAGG
Entries and their PBM binding z-score

# annotated cases, reported PBM binding z-score shown
INSERT INTO assay_data (seq_text, subject_of_test, result) VALUES
  ('CCTAGCAGGCCAATCTGGGTCGCTCAAGGCTTGA', 'RARb homodimer (NR concentration 270 nM)', 0.548),
  ('TCATATAGGTAAACAGGTGAAGGTCCGTAAGTTA', 'RARb homodimer (NR concentration 270 nM)', 0.91),
  ('AATCCAGGGTCATCGTAGGCCAGAGTACGCACAG', 'RARb homodimer (NR concentration 270 nM)', 3.82),
  ('CGTCAAAGTTCAACTAGGGTAACGTAAAGCACGC', 'RARb homodimer (NR concentration 270 nM)', 4.3),
  ('TCTGTTAGTTGAAGGGCAACCGACGAGTCCGTTT', 'RARb homodimer (NR concentration 270 nM)', 1.22),
  ('CTCGAAAGGTCGTGCTCAGGTGAGTTTACCAAAC', 'RARb homodimer (NR concentration 270 nM)', 2.8),
  ('TCAAGTAGGTTACCAATGGGGCATTCAGCTTTCT', 'RARb homodimer (NR concentration 270 nM)', 1.04),
  ('ATCACTAGGTAACCAAGTTCAGTGAATGCCGAAC', 'RARb homodimer (NR concentration 270 nM)', 1.26);

[ask] Given CCTGCTAGGTCAATGGTCAGCTGAAGCAGCTCGC , state its recorded PBM binding z-score.
[reply] 3.18

====

Entries and their PBM binding z-score
System: RARg:RXRa (NR concentration 270 nM, RXRa partner concentration 90 nM)
Experiment: PBM binding z-score (relative to random genomic background probes); higher = stronger binding; sequences stand for … in GC…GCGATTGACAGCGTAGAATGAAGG
Give only the figure.

INSERT INTO results (seq_text, readout_name, result_number) VALUES
  ('CGAACTAGGTCAGAACAGGACAGTGATGGATGAT', 'PBM binding z-score', 2.39);

[ask] Given GCATATAGGTAATACAAGGTGATAGTCCGATTGT , state its recorded PBM binding z-score.
[reply] 0.537

[ask] Given CCTAGTGGGCCAAAAAGGTCATTGATGCCGATAA , state its recorded PBM binding z-score.
[reply] 4.7

[ask] Given CCTACTGGGCCATCAGGTCATAGATATCAACGTT , state its recorded PBM binding z-score.
[reply] 2.03

[ask] Given ATATGTAGGTTAGCTGGGGTCATTCTGACTAGGC , state its recorded PBM binding z-score.
[reply] 3.88

[ask] Given CGAACTAGGTCATCCAGGACATTGAATACATTGA , state its recorded PBM binding z-score.
[reply] 3.95

[ask] Given ATCGAAAGGTCGCGGTGAGTATAGAGAAAGGGAA , state its recorded PBM binding z-score.
[reply] 5

[ask] Given CGAACTAGGTCATTGACACGACAGTGAATAGTAA , state its recorded PBM binding z-score.
[reply] 3.57

[ask] Given ATCGAAAGGTCGACGAGGTGAGTATTCACCGTTT , state its recorded PBM binding z-score.
[reply] 4.29

[ask] Given TCTCGGAGGACACGAACGGTCAGAGCTCGACATC , state its recorded PBM binding z-score.
[reply] 1.02

[ask] Given CCAAACAGGTGAAAGGTAACTCAGTCTGGTACGC , state its recorded PBM binding z-score.
[reply] 1.11

[ask] Given AGTCAAAGTTCATCTACGTAACGTAAGATATGCT , state its recorded PBM binding z-score.
[reply] 5.4
